Test: Biodistribution of 177Lu-labeled αMSH analogues in mice bearing SK-MEL-1 human melanoma
Conditions: male, NRG (NOD.Cg-Rag1tm1Mom Il2rgtm1Wjl/SzJ), mouse, spleen, total radioactivity
measure.name: tissue uptake at 24 h (%ID/g)
Write it as a number; the unit %ID/g goes unstated.

CCCC[C@H](NC(=O)CN1CCC(NC(=O)[C@H](CCCCNC(=O)CN2CCN(CC(=O)O)CCN(CC(=O)O)CCN(CC(=O)O)CC2)NC(=O)CNC(=O)CCCc2ccc(I)cc2)CC1)C(=O)N[C@H]1CC(=O)NCCCC[C@@H](C(N)=O)N(C)C(=O)[C@H](Cc2c[nH]c3ccccc23)NC(=O)[C@H](CCCNC(=N)N)N(C)C(=O)[C@@H](Cc2ccccc2)NC(=O)[C@H](Cc2c[nH]cn2)NC1=O [^177Lu-labeled CCZ01148, metal not drawn] ... 6.19

What value of tissue uptake at 24 h has been recorded for this entry: CCCC[C@H](NC(=O)CN1CCC(NC(=O)[C@H](CCCCNC(=O)CN2CCN(CC(=O)O)CCN(CC(=O)O)CCN(CC(=O)O)CC2)NC(=O)[C@H](CCC(=O)O)NC(=O)CCCc2ccc(I)cc2)CC1)C(=O)N[C@H]1CC(=O)NCCCC[C@@H](C(N)=O)N(C)C(=O)[C@H](Cc2c[nH]c3ccccc23)NC(=O)[C@H](CCCNC(=N)N)N(C)C(=O)[C@@H](Cc2ccccc2)NC(=O)[C@H](Cc2c[nH]cn2)NC1=O [^177Lu-labeled CCZ01118, metal not drawn]
1.2

Please do the same for CCCC[C@H](NC(=O)CN1CCC(NC(=O)[C@H](CCCCNC(=O)CN2CCN(CC(=O)O)CCN(CC(=O)O)CCN(CC(=O)O)CC2)NC(=O)CNC(=O)CCCc2ccc(-c3ccc(C)cc3)cc2)CC1)C(=O)N[C@H]1CC(=O)NCCCC[C@@H](C(N)=O)N(C)C(=O)[C@H](Cc2c[nH]c3ccccc23)NC(=O)[C@H](CCCNC(=N)N)N(C)C(=O)[C@@H](Cc2ccccc2)NC(=O)[C@H](Cc2c[nH]cn2)NC1=O [^177Lu-labeled CCZ01158, metal not drawn] as well.
1.89
